Origin of values: paper PMC2064523

Biological target: T1, Vh1 domain of human vinculin (residues 1–258) (human, UniProt P18206 1-258)
T1 sequence (looked up): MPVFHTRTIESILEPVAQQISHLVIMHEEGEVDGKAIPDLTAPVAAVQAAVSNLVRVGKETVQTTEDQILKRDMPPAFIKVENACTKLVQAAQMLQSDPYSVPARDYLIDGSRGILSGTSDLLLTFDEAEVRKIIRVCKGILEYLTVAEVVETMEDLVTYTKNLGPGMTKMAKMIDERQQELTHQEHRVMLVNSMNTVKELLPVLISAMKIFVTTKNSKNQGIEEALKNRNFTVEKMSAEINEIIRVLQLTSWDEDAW
Assay: SPR
quantity: Kd (nM)

AIYEAAKEVSSALSKVLSKIDDT [IpaA-VBS2-K569A peptide] : 0.53
NIIKAAKDVTTSLSKVLKNINKD [IpaA-VBS-Y613I peptide] : 0.27
AIYEKAKEVSSALSKVLSKIDDT (peptide, UniProt P18010 565-587, looked up) [IpaA-VBS2 peptide (IpaA residues 565–587)] : 6.61
NIYKAAKDVTTSLSKVLKNINKD (peptide, UniProt P18010 611-633, looked up) [IpaA-VBS peptide (IpaA residues 611–633)] : 0.11
